- experiment.notes: Cytotoxicity against MDCK cells assessed as maximal non-cytotoxic concentration by MTT assay
- Format: cell-based, Canis lupus familiaris
- setup.conditions: dog, read-out: MNCC
experimental.endpoint: log10 MNTC (log10 of the value in µM)

{"molecule": "O=C1/C(=C/c2ccc(O)c(O)c2)Oc2cc(O)ccc21 [SULFURETIN]", "log10 MNTC": 0.96}
{"molecule": "O=c1cc(-c2ccc(O)cc2)oc2cc(O)cc(O)c12 [APIGENIN]", "log10 MNTC": 0.88}
{"molecule": "O=c1cc(-c2ccc(O)c(O)c2)oc2cc(O)cc(O)c12 [LUTEOLIN]", "log10 MNTC": 0.86}
{"molecule": "O=C1/C(=C\\c2ccc(O)cc2)Oc2cc(O)ccc21", "log10 MNTC": 1.94}
{"molecule": "CCC(CC)O[C@@H]1C=C(C(=O)O)C[C@H](N)[C@H]1NC(C)=O [OSELTAMIVIR CARBOXYLATE]", "log10 MNTC": 0.01}
{"molecule": "COc1c(O)cc2oc(-c3ccc(O)cc3)cc(=O)c2c1O [HISPIDULIN]", "log10 MNTC": 1.39}

----------
- target: Neuraminidase (Influenza A virus)
- Sequence (B4URF0 whole entry): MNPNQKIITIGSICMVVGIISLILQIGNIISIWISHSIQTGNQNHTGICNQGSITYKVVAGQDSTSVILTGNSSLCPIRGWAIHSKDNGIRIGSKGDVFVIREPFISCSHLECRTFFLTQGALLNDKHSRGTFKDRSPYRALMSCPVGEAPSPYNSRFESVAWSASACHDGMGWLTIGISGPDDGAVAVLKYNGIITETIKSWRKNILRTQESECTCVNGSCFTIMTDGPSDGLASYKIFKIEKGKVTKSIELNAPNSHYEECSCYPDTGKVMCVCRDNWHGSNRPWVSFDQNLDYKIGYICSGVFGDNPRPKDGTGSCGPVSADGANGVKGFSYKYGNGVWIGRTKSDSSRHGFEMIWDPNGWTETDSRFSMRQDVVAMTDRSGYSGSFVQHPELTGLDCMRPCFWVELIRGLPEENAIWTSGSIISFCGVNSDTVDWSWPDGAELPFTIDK
- Parameters: species or system Influenza A virus (A/Puerto Rico/8/1934(H1N1))
pIC50: −log10 of the molar value.
Consider the following compounds and their measured pIC50 readings.

{"smiles.repr": "Oc1cc(O)c2c(c1)O[C@H](c1ccc(O)c(O)c1)[C@@H](O)C2", "pIC50": "< 4.00"}
{"smiles.repr": "O=C1C[C@@H](c2ccc(O)cc2)Oc2cc(O)cc(O)c21", "pIC50": "< 4.00"}
{"smiles.repr": "COc1ccc([C@@H]2CC(=O)c3c(O)cc(O[C@@H]4O[C@H](CO[C@@H]5O[C@@H](C)[C@H](O)[C@@H](O)[C@H]5O)[C@@H](O)[C@H](O)[C@H]4O)cc3O2)cc1O", "pIC50": "< 4.00"}

----------
Listed molecules paired with reported IC50
- target: Neuraminidase (Influenza A virus)
experimental.endpoint: IC50

{"molecule": "O=C1C[C@@H](c2ccc(O)cc2)Oc2cc(O)cc(O)c21 [NARINGENIN]", "experimental.endpoint": "IC50", "val": "> 100 µM"}
{"molecule": "O=c1c(-c2ccc(O[C@@H]3O[C@H](CO)[C@@H](O)[C@H](O)[C@H]3O)cc2)coc2cc(O)cc(O)c12 [SOPHORICOSIDE]", "experimental.endpoint": "IC50", "val": "> 100 µM"}
{"molecule": "Oc1cc(O)c2c(c1)O[C@@H](c1ccc(O)c(O)c1)[C@@H](O)C2 [(+)-EPICATECHIN]", "experimental.endpoint": "IC50", "val": "> 100 µM"}
{"molecule": "O=C1C[C@@H](c2ccc(O[C@@H]3O[C@H](CO)[C@@H](O)[C@H](O)[C@H]3O)cc2)Oc2cc(O)ccc21 [LIQUIRITIN]", "experimental.endpoint": "IC50", "val": "> 100 µM"}
{"molecule": "Oc1cc(O)c2c(c1)O[C@H](c1ccc(O)c(O)c1)[C@@H](O)C2 [CATECHIN]", "experimental.endpoint": "IC50", "val": "> 100 µM"}
{"molecule": "COc1ccc(-c2coc3cc(O)ccc3c2=O)cc1 [FORMONONETIN]", "experimental.endpoint": "IC50", "val": "> 100 µM"}

----------
Measured IC50 accompanies every entry in the list below.
- target: Neuraminidase (Influenza A virus)
- Set-up: species or system Influenza B virus

{"compound": "O=C1C[C@@H](c2ccc(O)cc2)Oc2cc(O)cc(O)c21", "unit.symbol": "µM", "relation.qualifier": ">", "IC50": 100}
{"compound": "O=c1c(-c2ccc(O)cc2)coc2cc(O)cc(O)c12", "unit.symbol": "µM", "relation.qualifier": "=", "IC50": 83.3}
{"compound": "O=c1cc(-c2ccc(O)c(O)c2)oc2cc(O[C@@H]3O[C@H](CO)[C@@H](O)[C@H](O)[C@H]3O)cc(O)c12", "unit.symbol": "µM", "relation.qualifier": "=", "IC50": 58.6}
{"compound": "Oc1cc(O)c2c(c1)O[C@@H](c1ccc(O)c(O)c1)[C@@H](O)C2 [(+)-EPICATECHIN]", "unit.symbol": "µM", "relation.qualifier": ">", "IC50": 100}
{"compound": "O=c1cc(-c2ccc(O)c(O)c2)oc2cc(O)cc(O)c12", "unit.symbol": "µM", "relation.qualifier": "=", "IC50": 53.3}
{"compound": "O=c1c(O)c(-c2ccc(O)cc2)oc2cc(O)cc(O)c12", "unit.symbol": "µM", "relation.qualifier": "=", "IC50": 46.4}
{"compound": "COc1ccc(-c2coc3cc(O)ccc3c2=O)cc1", "unit.symbol": "µM", "relation.qualifier": ">", "IC50": 100}

----------
- experiment.notes: Cytotoxicity against MDCK cells assessed as maximal non-cytotoxic concentration by MTT assay
- Assay type: cell-based, Canis lupus familiaris
- setup.conditions: dog, read-out: MNCC
MNTC overview
experimental.endpoint: MNTC

{"compound": "O=c1c(-c2ccc(O)cc2)coc2cc(O)ccc12 [DAIDZEIN]", "experimental.endpoint": "MNTC", "val": "> 787 µM"}
{"compound": "O=c1cc(-c2ccc(O)c(O)c2)oc2cc(O[C@@H]3O[C@H](CO)[C@@H](O)[C@H](O)[C@H]3O)cc(O)c12 [GALUTEOLIN]", "experimental.endpoint": "MNTC", "val": "> 1120 µM"}
{"compound": "O=C1/C(=C\\c2ccc(O)cc2)Oc2cc(O)cc(O)c21", "experimental.endpoint": "MNTC", "val": "> 741 µM"}

Recorded values, source ChEMBL document CHEMBL1155907.
